experiment: gradient 5% acetonitrile 3 min, to 50% in 2 min, to 85% in 15 min, held 3 min, 100 µL/min; details: column: Zorbax Extend-C18 2.1 x 50 mm; eluents: water / acetonitrile, 0.1% formic acid
ASSAY_READOUT: RP-LC retention time (s)
I only need the number, in s, no unit after it.

I am curious: what RP-LC retention time value has been reported for "COC(=O)c1c(NCc2ccccc2Cl)c2ccccc2[nH]c1=O" ?
766

What about this compound? "Cc1ccc(-c2ncc3c(=O)n(CC(=O)NC(C)C)c(=O)n(C)c3n2)cc1"
854

What do you get for "CCN1c2cc(Cl)ccc2C(=O)NC12CCN(C(=O)Nc1ccccc1C)CC2" ?
837

Another compound: "COc1cccc(NC(=O)Cn2c(=O)c(CCC(=O)NC3CCCC3)nc3ccccc32)c1"
825

Continuing:
For the compound shown here, "O=C(Nc1ccc(-c2cn3ccccc3n2)cc1)c1ccc([N+](=O)[O-])cc1" , give the reported RP-LC retention time.
586

"CCc1c(C2CCN(C(=O)c3cc4ccccc4[nH]3)CC2)noc1N" ?
774

Same thing, different compound: "O=S(=O)(c1ccc(F)cc1F)N1CCc2nc(-c3ccc(Cl)cc3)ncc2C1"
1200

Also, "COCCCNC(=O)C1(c2ccc(NC(=O)c3cccs3)cc2)CC1" please.
746

Next compound up: "COc1ccc(OCc2nc(-c3ccc(-c4csc(C5CC5)n4)cc3)no2)cc1"
1300

Also need "CC(C)c1nc(CNC(=O)c2ccc(Cl)cc2)no1" , thanks.
785

###

experiment: gradient 5% acetonitrile 3 min, to 50% in 2 min, to 85% in 15 min, held 3 min, 100 µL/min; conditions: column: Zorbax Extend-C18 2.1 x 50 mm; eluents: water / acetonitrile, 0.1% formic acid
Below, each entry is listed alongside its reported RP-LC retention time.
Reply with just the number (in s).

For orientation, consider the following solved cases.
So what does the record say about RP-LC retention time for Cc1ccc(-c2nnc(C3CN(C(=O)C4(c5ccccc5)CC4)CC34CCOCC4)o2)cc1 (stereo not drawn) ?
830

Quick one: "COc1ccc(OC)c(S(=O)(=O)NCc2c(-c3ccccc3)nc3sc(C)nn23)c1"
839

And what about the compound "CC1=NS(=O)(=O)N(C)C=C1C(=O)OCc1nc(-c2ccc(C(F)(F)F)cc2)no1" ?
1060

Then what about the compound "CCn1nc(CNC(=O)c2cncc(Br)c2)c2ccccc21" ?
820

Another compound to look at: "Cc1ccccc1NS(=O)(=O)c1ccc2c(c1)CCCC(=O)N2"
725

---
Look up RP-LC retention time for this compound: COCCN1C(=O)c2cccn2CC1CNC(=O)Cn1nc(C(F)(F)F)cc1C (stereo not drawn)
703

Next: "O=C(c1ccc2c(=O)n(-c3ccccc3)c(N3CCCCC3)nc2c1)N1CCN(c2ccccn2)CC1"
669

Thanks! And "COc1ccc(S(=O)(=O)CCC(=O)Nc2ccc(Cl)c3ncsc23)cc1" ?
707

###

experiment: gradient 5% acetonitrile 3 min, to 50% in 2 min, to 85% in 15 min, held 3 min, 100 µL/min; conditions: column: Zorbax Extend-C18 2.1 x 50 mm; eluents: water / acetonitrile, 0.1% formic acid
Items are presented alongside their recorded RP-LC retention time.
// return numeric value only (unit: s, not printed)

Give its RP-LC retention time value. Item: "Cc1ccc2c(c1)c1ncn(Cc3nc(C(C)C)no3)c(=O)c1n2CC(=O)N1CCCC1"
818

Thanks! And CC(C)n1cnc(S(=O)(=O)N2CCCC(C(=O)NCCCc3ccccc3)C2)c1 (centres undefined) ?
806

Another molecule to look at: "Cc1ccc(N(Cc2nc3nc(C)cc(C)n3n2)C(=O)c2cccs2)cc1"
802

Let us examine a further case.
What does the record list as RP-LC retention time for "COC(=O)CNC(=O)Nc1ccccc1-c1cc2ccccc2[nH]1" ?
810

FYI, the data here is from the METLIN SMRT retention time set (Domingo-Almenara et al. 2019).
